Hello, the source for this data is paper PMC8464939, in case you need it.

# Target under test: xanthine oxidase (XO) (Bos taurus)
# Sequence (P80457 whole entry): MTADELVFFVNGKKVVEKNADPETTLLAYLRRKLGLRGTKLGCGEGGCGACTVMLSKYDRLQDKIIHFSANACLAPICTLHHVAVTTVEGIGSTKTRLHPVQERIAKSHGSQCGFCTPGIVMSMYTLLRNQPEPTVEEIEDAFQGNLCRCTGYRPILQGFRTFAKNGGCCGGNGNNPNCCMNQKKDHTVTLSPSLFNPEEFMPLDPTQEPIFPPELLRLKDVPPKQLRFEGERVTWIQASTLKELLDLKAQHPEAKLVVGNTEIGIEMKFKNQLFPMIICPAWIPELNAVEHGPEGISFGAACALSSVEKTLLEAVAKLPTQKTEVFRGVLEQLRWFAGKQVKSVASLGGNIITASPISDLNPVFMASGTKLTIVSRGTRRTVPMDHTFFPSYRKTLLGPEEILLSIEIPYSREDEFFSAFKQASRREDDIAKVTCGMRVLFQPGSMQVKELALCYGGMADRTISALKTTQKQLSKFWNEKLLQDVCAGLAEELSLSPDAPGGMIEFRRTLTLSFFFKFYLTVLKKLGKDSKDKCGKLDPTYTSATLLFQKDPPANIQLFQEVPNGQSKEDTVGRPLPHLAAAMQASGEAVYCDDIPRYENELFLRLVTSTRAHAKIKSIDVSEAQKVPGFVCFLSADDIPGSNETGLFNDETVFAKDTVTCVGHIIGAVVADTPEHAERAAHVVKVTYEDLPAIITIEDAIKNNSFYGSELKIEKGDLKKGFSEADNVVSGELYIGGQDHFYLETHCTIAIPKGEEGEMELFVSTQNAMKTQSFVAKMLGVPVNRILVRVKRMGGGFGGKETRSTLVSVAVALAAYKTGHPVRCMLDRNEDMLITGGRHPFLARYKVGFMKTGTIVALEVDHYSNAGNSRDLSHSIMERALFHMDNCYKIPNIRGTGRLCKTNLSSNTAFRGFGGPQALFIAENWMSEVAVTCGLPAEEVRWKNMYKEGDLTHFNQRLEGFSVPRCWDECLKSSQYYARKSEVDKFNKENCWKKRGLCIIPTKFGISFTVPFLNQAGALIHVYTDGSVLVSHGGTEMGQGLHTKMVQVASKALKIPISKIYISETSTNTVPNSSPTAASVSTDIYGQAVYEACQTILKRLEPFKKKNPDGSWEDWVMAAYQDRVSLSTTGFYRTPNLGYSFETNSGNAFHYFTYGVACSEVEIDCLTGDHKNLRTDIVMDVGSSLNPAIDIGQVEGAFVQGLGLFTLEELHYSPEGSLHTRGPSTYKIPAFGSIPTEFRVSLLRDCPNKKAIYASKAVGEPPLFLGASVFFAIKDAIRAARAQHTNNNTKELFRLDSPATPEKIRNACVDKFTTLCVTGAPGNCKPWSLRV
Measurement label: pKi
FYI, pKi means -log10 of a concentration in mol per litre.

Identify the measured pKi of O=C(O[C@@H]1Cc2c(O)cc(O)cc2O[C@@H]1c1ccc(O)c(O)c1)c1cc(O)c(O)c(O)c1 [ECG, Epicatechin gallate] for xanthine oxidase (XO) (Bos taurus).
5.28

====

# Target under test: UniProtKB P80457
# Assay summary: XO activity assay (uric acid formation, absorbance at 293 nm)
# Assay type: biochemical, bovine
# Details: pH 7.4; XO 0.075 μM; xanthine 50.0 μM; read-out: IC50 for inhibiting XO activity
Measurement label: pIC50
FYI, pIC50 means -log10 of a concentration in mol per litre.

Which pIC50 is reported for this compound? O=C(O[C@@H]1Cc2c(O)cc(O)cc2O[C@@H]1c1ccc(O)c(O)c1)c1cc(O)c(O)c(O)c1 [ECG, Epicatechin gallate]
4.71
